Taken from PubChem BioAssay AID1963425.

# System: 323965-272-R-J2-PDC complex spheroid growth, % test/control;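 note: compound exposure lasted 7 days starting three days after spheroid seeding; 100% = DMSO vehicle control wells with viability set relative to vehicle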
# Protocol Notes: Anticancer human tumor 323965-272-R-J2-PDC patient-derived pancreatic carcinoma cell line growth inhibition [Asc]
# Condition Label: second compound 0.1 µM; first compound 0.1 µM; stronger effect = lower value
# Source text: Multicellular complex tumor spheroid response to apoptosis pathway targeting inhibitors Alrizomadlin, Pelcitoclax, and Dasminapant in combination with a variety of drugs and investigational agents in selected tumor cell lines […] Compounds. […] If the clinical Cmax for an agent had not been determined, the highest concentration tested was 10 microM. […]
Reported Metric: viability, T/C

# example entries with known answers
- Compound: "C#Cc1c(F)ccc2cc(O)cc(-c3ncc4c(N5CC6CCC(C5)N6)nc(OCC56CCCN5CC(F)C6)nc4c3F)c12 (stereo not drawn) + Cc1c(S(C)(=O)=O)c(-c2cc(F)cc(N3CCN(c4ccc(NS(=O)(=O)c5ccc(NC(CCN6CCC(C(=O)OCCCP(=O)(O)O)CC6)CSc6ccccc6)c(S(=O)(=O)C(F)(F)F)c5)cc4)CC3)c2)c(-c2ccc(Cl)cc2)n1C(C)C"
  Reported Metric: "viability, T/C"
  Observed: "111%"
- Compound: "C#Cc1c(F)ccc2cc(O)cc(-c3ncc4c(N5CC6CCC(C5)N6)nc(OCC56CCCN5CC(F)C6)nc4c3F)c12 (stereo not drawn) + CNC(C)C(=O)NC1CN(S(=O)(=O)c2cccc(S(=O)(=O)N3CCC4CCC(C(=O)NC(c5ccccc5)c5ccccc5)N4C(=O)C(NC(=O)C(C)NC)C3)c2)CCC2CCC(C(=O)NC(c3ccccc3)c3ccccc3)N2C1=O"
  Reported Metric: "viability, T/C"
  Observed: "96.6%"

The record that follows has no viability, T/C shown yet.
Value lookup for viability, T/C; key = C=CC(=O)N1CCN(c2nc(=O)n(-c3c(C)ccnc3C(C)C)c3nc(-c4c(O)cccc4F)c(F)cc23)C(C)C1 (stereo not drawn) + CNC(C)C(=O)NC1CN(S(=O)(=O)c2cccc(S(=O)(=O)N3CCC4CCC(C(=O)NC(c5ccccc5)c5ccccc5)N4C(=O)C(NC(=O)C(C)NC)C3)c2)CCC2CCC(C(=O)NC(c3ccccc3)c3ccccc3)N2C1=O
60.5%
